Assay System: Cholinesterase (Homo sapiens, UniProt P06276)
Sequence (P06276 whole entry): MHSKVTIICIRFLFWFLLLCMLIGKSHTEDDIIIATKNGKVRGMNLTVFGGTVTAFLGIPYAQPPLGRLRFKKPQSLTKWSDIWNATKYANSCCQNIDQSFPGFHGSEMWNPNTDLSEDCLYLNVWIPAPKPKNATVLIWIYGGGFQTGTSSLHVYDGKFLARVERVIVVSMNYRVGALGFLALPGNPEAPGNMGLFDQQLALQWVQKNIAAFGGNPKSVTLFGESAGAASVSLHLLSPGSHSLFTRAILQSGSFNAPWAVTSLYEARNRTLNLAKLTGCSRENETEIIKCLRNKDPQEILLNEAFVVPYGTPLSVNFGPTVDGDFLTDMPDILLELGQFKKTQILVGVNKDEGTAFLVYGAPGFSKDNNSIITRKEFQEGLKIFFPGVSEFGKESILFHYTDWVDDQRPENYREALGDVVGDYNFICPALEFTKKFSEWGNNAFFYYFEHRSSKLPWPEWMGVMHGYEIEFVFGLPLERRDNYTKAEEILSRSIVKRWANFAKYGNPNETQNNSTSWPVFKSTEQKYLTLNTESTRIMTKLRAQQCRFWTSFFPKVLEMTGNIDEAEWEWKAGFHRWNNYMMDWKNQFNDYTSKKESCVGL
Procedure Summary: Binding affinity to human BChE assessed as gibbs free energy change
Parameter Measured: deltaG
Hi, when you answer, please include the unit after the number. Thanks!

C#CCCCN(C)C(=O)Oc1cccc2c(CN(C)CCC3CCCCCC3)c[nH]c12	24.8 kcal/mol
CN(CCC1CCCCCC1)Cc1c[nH]c2c(OC(=O)N(C)Cc3ccccc3)cccc12	25.2 kcal/mol
CN(CCC1CCCCCC1)Cc1c[nH]c2c(OC(=O)N(C)C)cccc12	24 kcal/mol
C#CCN(C)C(=O)Oc1cccc2c(CN(C)CCC3CCCCCC3)c[nH]c12	24.8 kcal/mol
C#CCN(CC#C)C(=O)Oc1cccc2c(CN(C)CCC3CCCCCC3)c[nH]c12	24 kcal/mol

What value of deltaG has been reported for the following compound? CCN(CC)C(=O)Oc1cccc2c(CN(C)CCC3CCCCCC3)c[nH]c12
25.9 kcal/mol
